pIC50 for assorted compounds
System: SU-DHL-10
Assay: Cell proliferation assay (CellTiter Glo, 72 h)
Assay type: cell-based
Conditions: Homo sapiens, SU-DHL10, SU-DHL-10, DLBCL GCB subtype
pIC50: −log10 of the molar value.
measurement_name: pIC50

{"compound": "COc1cc(F)ccc1-c1cc(Nc2cc(CS(C)(=N)=O)ccn2)ncc1F (single isomer, unassigned; (+))", "measurement_name": "pIC50", "result": 6.89}
{"compound": "COc1cc(F)ccc1-c1ncnc(Nc2cccc(CS(C)(=N)=O)c2)n1 (centres unmarked) [FR compound, reference compound]", "measurement_name": "pIC50", "result": 6.22}

====

Test system: SU-DHL-6
Assay: Cell proliferation assay (CellTiter Glo, 72 h)
Format: cell-based
Settings: Homo sapiens, SU-DHL-6, DLBCL GCB subtype

{"molecule": "COc1cc(F)ccc1-c1ncnc(Nc2cccc(CS(C)(=N)=O)c2)n1 (centres unmarked) [FR compound, reference compound]", "study_target": "SU-DHL-6", "IC50 (nM)": 360}
{"molecule": "COc1cc(F)ccc1-c1cc(Nc2cc(CS(C)(=N)=O)ccn2)ncc1F (single isomer, unassigned; (+))", "study_target": "SU-DHL-6", "IC50 (nM)": 37}
